TEST_METHOD_NOTES: endothelial E-selectin expression blockers – imaging, HUVEC, immunofluorescence, MLSMR starter and 10KST1 sets, primary screen (AID 487);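 note: signal is fraction of cell area covered by stained E-selectin grains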
RUN_CONDITIONS: HUVEC TNFalpha-induced E-selectin immunofluorescence imaging, at 2 µM; hits give high values

COMPOUND	inhibition [%]
Cc1c(-n2c(CN3C(=O)c4ccccc4C3=O)nc3ccccc3c2=O)c(=O)n(-c2ccccc2)n1C	77.1
CC1CN(Cc2nc3c(c(=O)[nH]c(=O)n3C)n2CC(N)=O)CC(C)O1 (configuration not stated)	-33
CCOC(=O)c1sc(Nc2nc3c(OC)cccc3s2)nc1C	-20.5
OC(CCN1CCOCC1)(c1ccc(Cl)cc1)C1CCCCC1 (configuration not stated)	37.9
Cc1ccc2c(c1)nnn2C1CCN(C(=O)NC23CC4CC(CC(C4)C2)C3)CC1	19.9
S=c1[nH]nc(Cc2ccccc2)n1Cc1ccco1	-2.6
COc1ccc(NC(=O)CSc2nc3c(c(=O)n2-c2ccc(F)cc2)SCC3)cc1	-11.9
O=C1CCCc2c1cc(C(=O)NCCCN1CCOCC1)c(=O)n2-c1ccc(Cl)cc1	-2.6
CC12COC3(C(=O)Nc4ccc(Cl)cn4)CC1CCC32C (configuration not stated)	-32.6
CCOc1ccc(NC(=O)CSc2nc3cccnc3n2CC)cc1	-54.8
O=C(c1ccco1)N1CCN(S(=O)(=O)c2ccc3c(c2)CCN3C(=O)C2CCC2)CC1	-53.2
N#Cc1c(N)c(C(=O)c2ccccc2)n2c1CCCC2	-11.6
O=C(Cn1nc(Cc2cccnc2)c2ccccc2c1=O)NCC1CCCO1 (configuration not stated)	-96.1
Cc1cc(NC(=O)CSc2nc(CCC3CCCC3)nc3ccccc23)no1	-41
COCCCNC(=O)CSc1ccc(Cl)cc1	10.2
CC(C)(C)n1nnnc1CN1CCC(NC(=O)NC2CCCCC2)CC1	-45.9
CCOC(=O)c1ccc2ncc(C(=O)OCC)c(NCCN(C)C)c2c1	-63.4
O=C(Nc1nc(-c2ccncc2)cs1)C1COc2ccccc2O1 (configuration not stated)	-28.4
COCCNC(=O)C(c1ccncc1)N(C(=O)Cn1nnc2ccccc21)c1ccc(OC)cc1 (configuration not stated)	8.4
Cc1cccc(OCC(=O)N2CCN(C(=O)Cc3ccccc3)CC2)c1	-34.1
Cc1cnn(Cc2ccccc2)c1N	25.6
CCOCCCNC(=O)CS(=O)(=O)Cc1nc(-c2cccc(OC)c2)oc1C	-6.1

Hey, just so you know, these numbers are from PubChem BioAssay.
